- procedure.details: Pharmacokinetic study of 151 (iv, oral) in SD rats: 151 and 100 in plasma
- Type: in vivo
- assay.setup: male, Sprague-Dawley, rat, in vivo, iv, 1 mg/kg, 151 IV 1.0 mg/kg, SD rats, mean; read-out: Vss of 151
measure.name: Vd (L/kg)

                                   compound  measure_name  unit  readout_value
0  COC(=O)C1C2CCC(O2)C1C(=O)N1CCN(C)CC1 (stereo not shown)            Vd  L/kg          0.736

---

- procedure.details: Pharmacokinetic study of 151 (iv, oral) in SD rats: 151 and 100 in plasma
- Format: in vivo
- assay.setup: male, Sprague-Dawley, rat, in vivo, iv, 1 mg/kg, 151 IV 1.0 mg/kg, SD rats, 0.250 h, individual rats
measure.name: concentration at 0.25 h (ng/mL)

In [3]: df
Out[3]:
                                   compound             measure_name  readout_value
0  COC(=O)C1C2CCC(O2)C1C(=O)N1CCN(C)CC1 (stereo not shown) [Compound 151]  concentration at 0.25 h           1160

---

- procedure.details: Pharmacokinetic study of 151 (iv, oral) in SD rats: 151 and 100 in plasma
- Assay type: in vivo
- assay.setup: male, Sprague-Dawley, rat, in vivo, po, 10 mg/kg, 151 oral 10 mg/kg, SD rats (n=3); read-out: mean half-life (converted)
measure.name: half-life

In [3]: df
Out[3]:
                                   compound  measure_name  readout_value
0  COC(=O)C1C2CCC(O2)C1C(=O)N1CCN(C)CC1 (stereo not shown)     half-life         1.26 h

---

- procedure.details: in vivo
- Set-up: species or system SD rats
- assay.setup: male, SD, rat, in vivo, iv, 1 mg/kg, IV 1 mg/kg, 1 hr, mean; read-out: Liver-plasma concentration ratio of 105
measure.name: Kp at 1 h

>>> print(df.to_string())
                                   compound  measure_name  readout_value
0  CCN1CCN(C(=O)C2C3CCC(O3)C2C(=O)O)CC1 (stereo not shown)     Kp at 1 h           2.07

---

- procedure.details: in vivo
- assay.setup: male, Sprague-Dawley, rat, po, 1.4 mg/kg
measure.name: AUC(0-t) (ng·h/mL)

In [3]: df
Out[3]:
                                   molecule     unit  readout_value
0  CN1CCN(C(=O)C2C(C(=O)OCC(Cl)(Cl)Cl)[C@H]3CC[C@@H]2O3)CC1 (stereo partly shown)  ng·h/mL           15.7

---

- procedure.details: in vivo
- Set-up: species or system SD rats
- assay.setup: male, SD, rat, in vivo, iv, 1 mg/kg, IV 1 mg/kg, 0.25 hr, individual; read-out: liver concentration of 105
measure.name: concentration at 0.25 hr (ng/g)

In [3]: df
Out[3]:
                                   molecule  unit  readout_value
0  CCN1CCN(C(=O)C2C3CCC(O3)C2C(=O)O)CC1 (stereo not shown)  ng/g           1070

---

- procedure.details: in vivo
- assay.setup: male, SD, rat, iv, 1.4 mg/kg, liver concentration of Endothal
measure.name: concentration at 0.25 hr (ng/g)

In [3]: df
Out[3]:
                                   compound              measure_name  unit  readout_value
0  O=C(O)C1C2CCC(O2)C1C(=O)O (stereo not shown) [Endothal]  concentration at 0.25 hr  ng/g            727

---

- procedure.details: Pharmacokinetic study of 151 (iv, oral) in SD rats: 151 and 100 in plasma
- Type: in vivo
- assay.setup: male, Sprague-Dawley, rat, in vivo, po, 10 mg/kg, plasma, 151 PO 10 mg/kg, SD rats, individual rats
measure.name: MRT (h)

>>> print(df.to_string())
                                   molecule  measure_name  readout_value
0  COC(=O)C1C2CCC(O2)C1C(=O)N1CCN(C)CC1 (stereo not shown)           MRT           1.86

---

- procedure.details: Pharmacokinetic study of 151 (iv, oral) in SD rats: 151 and 100 in plasma
- Format: in vivo
- assay.setup: male, Sprague-Dawley, rat, in vivo, iv, 1 mg/kg, 151 IV 1.0 mg/kg, SD rats, 1.0 h, mean
measure.name: concentration at 1 h (ng/mL)

>>> df
                                   compound          measure_name   unit  readout_value
0  COC(=O)C1C2CCC(O2)C1C(=O)N1CCN(C)CC1 (stereo not shown)  concentration at 1 h  ng/mL            348

---

- procedure.details: Pharmacokinetic study of 151 (iv, oral) in SD rats: 151 and 100 in plasma
- Format: in vivo
- assay.setup: male, Sprague-Dawley, rat, in vivo, po, 10 mg/kg, plasma, 151 PO 10 mg/kg, SD rats, mean
measure.name: MRT

In [3]: df
Out[3]:
                                   molecule  readout_value
0  COC(=O)C1C2CCC(O2)C1C(=O)N1CCN(C)CC1 (stereo not shown) [Compound 151]         1.81 h

---

- procedure.details: Pharmacokinetic study of 151 (iv, oral) in SD rats: 151 and 100 in plasma
- Assay type: in vivo
- assay.setup: male, Sprague-Dawley, rat, in vivo, iv, 1 mg/kg, plasma, 151 IV 1.0 mg/kg, SD rats, individual rats
measure.name: MRT (min)

>>> df
                                   compound  measure_name  unit  readout_value
0  COC(=O)C1C2CCC(O2)C1C(=O)N1CCN(C)CC1 (stereo not shown)           MRT   min           54.6

---

- procedure.details: Pharmacokinetic study of 151 (iv, oral) in SD rats: 151 and 100 in plasma
- Assay type: in vivo
- assay.setup: male, Sprague-Dawley, rat, in vivo, po, 10 mg/kg, 151 PO 10 mg/kg, SD rats, 0.25 h, individual rats
measure.name: concentration at 0.25 h (ng/mL)

>>> df
                                   compound             measure_name  readout_value
0  COC(=O)C1C2CCC(O2)C1C(=O)N1CCN(C)CC1 (stereo not shown)  concentration at 0.25 h           2230

---

- procedure.details: in vivo
- Design: species or system SD rats
- assay.setup: male, SD, rat, in vivo, iv, 1 mg/kg, IV 1 mg/kg, 0.25 hr, mean; read-out: Liver-plasma concentration ratio of 105
measure.name: Kp at 0.25 h

                                   compound  measure_name  readout_value
0  CCN1CCN(C(=O)C2C3CCC(O3)C2C(=O)O)CC1 (stereo not shown)  Kp at 0.25 h            0.6

---

- procedure.details: in vivo
- assay.setup: male, Sprague-Dawley, rat, iv, 1.4 mg/kg
measure.name: AUC(0-t) (ng·h/mL)

                                   compound  readout_value
0  CN1CCN(C(=O)C2C(C(=O)OCC(Cl)(Cl)Cl)[C@H]3CC[C@@H]2O3)CC1 (stereo partly shown) [Compound 113]            155

---

- procedure.details: Pharmacokinetic study of 151 (iv, oral) in SD rats: 151 and 100 in plasma
- Assay type: in vivo
- assay.setup: male, Sprague-Dawley, rat, in vivo, po, 10 mg/kg, 151 PO 10 mg/kg, SD rats, 0.25 h, mean
measure.name: concentration at 0.25 h (ng/mL)

>>> print(df.to_string())
                                   molecule  readout_value
0  COC(=O)C1C2CCC(O2)C1C(=O)N1CCN(C)CC1 (stereo not shown) [Compound 151]           2330

---

- procedure.details: Pharmacokinetic study of 151 (iv, oral) in SD rats: 151 and 100 in plasma
- Format: in vivo
- assay.setup: male, Sprague-Dawley, rat, in vivo, po, 10 mg/kg, 151 PO 10 mg/kg, SD rats, 2.0 h, mean
measure.name: concentration at 2 h

In [3]: df
Out[3]:
                                   molecule  readout_value
0  COC(=O)C1C2CCC(O2)C1C(=O)N1CCN(C)CC1 (stereo not shown) [Compound 151]     1310 ng/mL

Where do the numbers come from? From patent US11236102B2.
